target: PD-1/PD-L1 protein/protein interaction (Homo sapiens (Human)); experiment: PD-1/PD-L1 Homogeneous Time-Resolved Fluorescence (HTRF) binding assay; conditions: recombinant human PD-L1 (19-238) His-tag 10 nM, human PD-1 (25-167) Fc tag 3 nM, 25° C., PBS pH 7.4
Sequence (Q9NZQ7 19-238): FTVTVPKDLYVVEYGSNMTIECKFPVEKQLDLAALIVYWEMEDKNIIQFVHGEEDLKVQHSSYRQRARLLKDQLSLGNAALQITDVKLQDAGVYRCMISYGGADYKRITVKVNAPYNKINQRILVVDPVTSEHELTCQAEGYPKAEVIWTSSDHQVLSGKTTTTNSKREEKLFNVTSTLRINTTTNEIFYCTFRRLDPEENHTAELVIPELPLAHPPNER
pIC50: −log10 of the molar value.
Property: pIC50

# count of solved cases: 6
COc1cc2oc(-c3cccc(-c4ccccc4)c3C)nc2cc1CNCCO :: ≥ 8.00
Cc1c(-c2ccccc2)cccc1-c1cc2nc(CN3CCCC[C@H]3C(=O)O)cc(C)c2o1 :: 7.00 to 8.00
Cc1cc(CNCCO)cc2nc(-c3cccc(-c4ccc5c(c4)OCCO5)c3C#N)oc12 :: ≥ 8.00
Cc1c(C2=CCCCC2)cccc1-c1nc2cc(CNCCO)c(OCC#N)cc2o1 :: 7.00 to 8.00
Cc1c(-c2ccccc2)cccc1-c1nc2cc(CN3CCCC[C@H]3C(=O)O)c(OCC#N)cc2o1 :: ≥ 8.00
Cc1cc(CNCCO)cc2nc(-c3cccc(-c4ccccc4)c3C#N)oc12 :: ≥ 8.00

Proceeding to the next compound to report its pIC50.
input: Given the compound Cc1c(-c2ccccc2)cccc1-c1cc2nc(CN3CCCC[C@H]3C(=O)O)cnc2o1 , what is its reported pIC50?
output: 6.00 to 7.00
